Tested on: Mycobacterium tuberculosis
Assay: Antimycobacterial activity against Mycobacterium tuberculosis 103471
Assay type: functional
property.label: MIC
Enter the number, and then the unit.

Below, each entry is followed by its recorded MIC result.
Cc1ccc(-c2cc(CN3CCSCC3)c(C)n2-c2ccc(F)cc2)cc1; 0.25 µg/mL
Cc1ccc(-c2cc(CN3CCSCC3)c(C)n2-c2ccc(Cl)cc2)cc1; 0.5 µg/mL
CCc1ccc(-n2c(-c3ccc(Cl)cc3)cc(CN3CCSCC3)c2C)cc1; 0.5 µg/mL

Exercise: # query: MIC | item CO[C@H]1/C=C/O[C@@]2(C)Oc3c(C)c(O)c4c(O)c(c(/C=N/N5CCN(C)CC5)c(O)c4c3C2=O)NC(=O)/C(C)=C\C=C\[C@H](C)[C@H](O)[C@@H](C)[C@@H](O)[C@@H](C)[C@H](OC(C)=O)[C@@H]1C | system: Mycobacterium tuberculosis
Key: 0.25 µg/mL

Just for reference, ChEMBL document CHEMBL1150412 is where these values come from.
